Assayed target: T1, VCAM (Panvera) (UniProt P19320 25-698, limits assumed)
T1 sequence (looked up): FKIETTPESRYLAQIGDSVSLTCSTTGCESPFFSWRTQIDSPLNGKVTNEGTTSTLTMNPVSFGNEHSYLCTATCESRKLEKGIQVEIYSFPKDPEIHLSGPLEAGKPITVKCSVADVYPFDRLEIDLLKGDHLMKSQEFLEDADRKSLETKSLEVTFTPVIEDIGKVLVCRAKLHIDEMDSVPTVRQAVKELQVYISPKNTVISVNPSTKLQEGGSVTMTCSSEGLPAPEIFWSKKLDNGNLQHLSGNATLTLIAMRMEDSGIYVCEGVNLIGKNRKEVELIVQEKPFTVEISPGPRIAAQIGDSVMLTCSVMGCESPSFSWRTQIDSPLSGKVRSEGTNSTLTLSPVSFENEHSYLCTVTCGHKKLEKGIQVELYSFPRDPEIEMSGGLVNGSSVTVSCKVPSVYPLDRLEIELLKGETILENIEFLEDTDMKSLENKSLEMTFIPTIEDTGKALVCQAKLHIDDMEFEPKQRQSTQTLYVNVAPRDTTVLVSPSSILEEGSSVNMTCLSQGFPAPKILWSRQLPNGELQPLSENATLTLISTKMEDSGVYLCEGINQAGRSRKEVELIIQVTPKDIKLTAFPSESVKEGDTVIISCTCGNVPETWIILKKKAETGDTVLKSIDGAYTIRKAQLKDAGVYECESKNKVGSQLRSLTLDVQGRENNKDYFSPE
Test method notes: cell-based or functional assay
Experimental readout: inhibition of adhesion of α4β1+/α5β1+ Jurkat T-cells to coated VCAM

Binder	Observed result
anti-MAdCAM monoclonal antibody 6.14.2 (antibody, human IgG4, kappa, V domains shown) VH: EVQLLESGGGLVQPGGSLRLSCAASGLTFNNSAMTWVRQAPGKGLEWVSTTSGSGGTTYYADSVKGRFTISRDSPKNTLYLQMNSLRAEDTAVYYCAARGYSYGTTPYEYWGQGTLVTVSS VL: DIQMTQSPSSLSASVGDRVTITCRASRSISSYLNWYQQKPGKAPKVLIFFVSSLQSGVPSRFSGSGSGTDFTLTISSLQPEDFATYYCQQNYIPPITFGQGTRLEIRR	> 100 fold

Lab note: anti-MAdCAM monoclonal antibody 6.22.2 (antibody, human IgG4, kappa, V domains shown, fully human IgG4 kappa from hybridoma; signal peptide left out; kappa chain stained positive for glycosylation) VH: QVQLVESGGGVVQPGRSLRLSCAASGHTFSSDGMHWVRQAPGKGLEWVAIIWYDGSNKYYADSVKGRFTISRDNSKNTLYLQMNSLRAEDTAVYYCARDPGYYYGMDVWGQGTTVTVSS VL: EIVLTQSPDFQSVTPKEKVTITCRASQRIGSSLHWYQQKPDQSPKLLIKYASQSFSGVPSRFSGSGSGTNFTLTINGLEAEDAATYYCHQSGRLPLTFGGGTKVEIKR gave inhibition of adhesion of α4β1+/α5β1+ Jurkat T-cells to coated VCAM of > 100 fold
